Protein target, amino acids: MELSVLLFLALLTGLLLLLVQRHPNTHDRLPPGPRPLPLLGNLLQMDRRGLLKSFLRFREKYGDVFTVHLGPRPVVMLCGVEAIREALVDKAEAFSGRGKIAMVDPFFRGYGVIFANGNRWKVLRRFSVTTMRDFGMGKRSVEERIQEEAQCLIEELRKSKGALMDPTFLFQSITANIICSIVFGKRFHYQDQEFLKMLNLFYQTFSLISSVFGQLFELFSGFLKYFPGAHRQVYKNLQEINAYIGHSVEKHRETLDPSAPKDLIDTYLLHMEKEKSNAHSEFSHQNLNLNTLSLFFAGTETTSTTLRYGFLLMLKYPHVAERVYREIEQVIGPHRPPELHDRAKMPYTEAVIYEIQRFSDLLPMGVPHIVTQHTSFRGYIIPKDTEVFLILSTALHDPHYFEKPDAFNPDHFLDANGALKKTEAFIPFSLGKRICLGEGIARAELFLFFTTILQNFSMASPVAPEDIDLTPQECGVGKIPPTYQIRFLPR
PROPERTY LABEL: IC50

Incoming: # input molecule: COCCNCc1ccc(-c2cc3nccc(Oc4ccc(NC(=O)C5(C(=O)Nc6ccc(F)cc6)CC5)cc4F)c3s2)nc1 ; wanted: its IC50
Outgoing: > 20 µM
